- assay.target: [MCL-1]-[compound of formula (I)]-[CRBN/DDB1] complex (Homo sapiens, UniProt Q07820+Q96SW2)
- Sequence (Q07820 whole entry): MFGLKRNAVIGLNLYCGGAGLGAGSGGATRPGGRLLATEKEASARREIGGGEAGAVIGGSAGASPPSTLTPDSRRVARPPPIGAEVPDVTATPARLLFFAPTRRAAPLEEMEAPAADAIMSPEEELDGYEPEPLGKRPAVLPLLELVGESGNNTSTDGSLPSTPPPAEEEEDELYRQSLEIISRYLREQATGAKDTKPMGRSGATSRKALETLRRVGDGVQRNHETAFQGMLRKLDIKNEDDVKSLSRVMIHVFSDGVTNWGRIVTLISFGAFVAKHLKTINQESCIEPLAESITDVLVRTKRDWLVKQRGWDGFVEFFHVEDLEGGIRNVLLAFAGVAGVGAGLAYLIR
- Sequence (Q96SW2 whole entry): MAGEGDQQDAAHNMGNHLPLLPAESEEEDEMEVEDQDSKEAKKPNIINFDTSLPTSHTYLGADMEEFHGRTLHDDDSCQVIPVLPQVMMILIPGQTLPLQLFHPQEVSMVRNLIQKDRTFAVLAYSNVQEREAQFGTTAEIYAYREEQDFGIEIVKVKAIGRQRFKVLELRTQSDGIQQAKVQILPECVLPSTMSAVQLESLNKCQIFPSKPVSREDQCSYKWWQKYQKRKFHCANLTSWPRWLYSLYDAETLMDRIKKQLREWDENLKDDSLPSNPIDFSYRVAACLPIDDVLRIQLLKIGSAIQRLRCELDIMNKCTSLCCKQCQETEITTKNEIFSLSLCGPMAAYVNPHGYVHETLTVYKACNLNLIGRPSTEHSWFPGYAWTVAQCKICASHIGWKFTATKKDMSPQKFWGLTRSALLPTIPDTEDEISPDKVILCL
- Sequence (Q16531 whole entry partner): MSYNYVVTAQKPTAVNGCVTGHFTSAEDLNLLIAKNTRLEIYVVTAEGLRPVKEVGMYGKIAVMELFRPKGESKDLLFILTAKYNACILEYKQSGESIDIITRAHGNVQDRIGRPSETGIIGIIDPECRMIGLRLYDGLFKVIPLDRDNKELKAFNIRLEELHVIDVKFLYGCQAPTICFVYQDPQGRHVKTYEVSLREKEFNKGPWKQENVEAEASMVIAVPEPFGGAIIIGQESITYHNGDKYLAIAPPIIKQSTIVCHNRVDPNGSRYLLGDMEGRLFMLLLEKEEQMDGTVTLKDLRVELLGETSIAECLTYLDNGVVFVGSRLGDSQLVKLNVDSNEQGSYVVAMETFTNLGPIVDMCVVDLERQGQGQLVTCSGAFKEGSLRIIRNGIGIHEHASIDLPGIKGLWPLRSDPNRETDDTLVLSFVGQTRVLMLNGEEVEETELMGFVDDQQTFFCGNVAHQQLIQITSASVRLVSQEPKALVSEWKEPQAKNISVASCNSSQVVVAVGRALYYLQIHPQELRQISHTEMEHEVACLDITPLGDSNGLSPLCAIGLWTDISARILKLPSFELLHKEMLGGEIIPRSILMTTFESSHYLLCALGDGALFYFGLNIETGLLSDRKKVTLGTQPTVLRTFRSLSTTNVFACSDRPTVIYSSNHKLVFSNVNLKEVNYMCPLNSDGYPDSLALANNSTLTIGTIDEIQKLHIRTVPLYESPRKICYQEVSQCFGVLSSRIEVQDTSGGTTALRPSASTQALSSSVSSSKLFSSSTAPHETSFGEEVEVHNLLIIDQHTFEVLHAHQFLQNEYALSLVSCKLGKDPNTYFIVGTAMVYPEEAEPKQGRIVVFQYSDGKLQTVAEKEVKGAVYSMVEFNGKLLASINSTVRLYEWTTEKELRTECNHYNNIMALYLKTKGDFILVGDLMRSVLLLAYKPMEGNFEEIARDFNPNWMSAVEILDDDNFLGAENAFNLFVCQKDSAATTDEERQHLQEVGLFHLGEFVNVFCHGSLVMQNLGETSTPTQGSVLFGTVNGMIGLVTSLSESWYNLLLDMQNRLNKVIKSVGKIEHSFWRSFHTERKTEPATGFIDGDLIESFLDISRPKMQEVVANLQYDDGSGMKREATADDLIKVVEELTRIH
- method.description: AlphaLISA dose response ternary complex formation assay
- Assay type: binding
- experimental.conditions: read-out: AlphaLISA dose response Average pEC50 by molecule (converted)
Structures can show the parent of a compound that is named as a salt.
Recorded measurements of EC50, one per entry

INSERT INTO results (compound, observable, result) VALUES
  ('Cc1nn(C)c(C)c1-c1c(Cl)ccc2c(CCCOc3cccc4cc(F)ccc34)c(C(=O)O)n(CCCCNC(=O)CNc3cccc4c3C(=O)N(C3CCC(=O)NC3=O)C4=O)c12 (stereo not shown)', 'EC50', '< 0.01 µM'),
  ('Cc1nn(C)c(C)c1-c1c(Cl)ccc2c(CCCOc3cccc4cc(F)ccc34)c(C(=O)O)n(CCN3CCN(C(=O)Cn4c(C)nc5c(C(=O)NC6CCC(=O)NC6=O)cc(Cl)cc54)CC3)c12 (stereo not shown)', 'EC50', '< 0.1 µM'),
  ('Cc1nn(C)c(COc2ccc(N3CCN(S(=O)(=O)N(C)C)CC3)cc2)c1-c1cccc2c(CCCOc3cccc4ccccc34)c(C(=O)O)n(CCN3CCN(CCCOCCOCCNc4cccc5c4C(=O)N(C4CCC(=O)NC4=O)C5=O)CC3)c12 (stereo not shown) [Compound 247, trifluoroacetate]', 'EC50', '< 1 µM');

Task item: Give the measured EC50 of Cc1nn(C)c(C)c1-c1c(Cl)ccc2c(CCCOc3cccc4ccccc34)c(C(=O)O)n(CCN3C[C@@H]4CN(C(=O)COc5cccc6c5C(=O)N(C5CCC(=O)NC5=O)C6=O)C[C@@H]4C3)c12 (stereo partly shown) .
Reply: < 0.1 µM

Task item: Give the measured EC50 of Cc1nn(C)c(C)c1-c1c(Cl)ccc2c(CCCOc3cccc4cc(F)ccc34)c(C(=O)O)n(CCCOCCOc3cccc4c3CN(C3CCC(=O)NC3=O)C4=O)c12 (stereo not shown) .
Reply: < 0.1 µM

Task item: Give the measured EC50 of Cc1nn2c(c1-c1c(F)ccc3c(CCCOc4cccc5cc(F)ccc45)c(C(=O)O)n(CCN4CCN(C(=O)COc5cccc6c5CN(C5CCC(=O)NC5=O)C6=O)CC4)c13)OCC2 (stereo not shown) .
Reply: < 0.01 µM

Task item: Give the measured EC50 of Cc1nn(C)c(C)c1-c1c(Cl)ccc2c(CCCOc3cccc4cc(F)ccc34)c(C(=O)O)n(CCN3CCN(C(=O)Cn4c(C)nc5c(C(=O)NC6CCC(=O)NC6=O)cc(F)cc54)CC3)c12 (stereo not shown) .
Reply: < 0.1 µM

Task item: Give the measured EC50 of Cc1ccc2c(CCCOc3cccc4ccccc34)c(C(=O)O)n(CCN3CCN(C(=O)COc4cccc5c4C(=O)N(C4CCC(=O)NC4=O)C5=O)CC3)c2c1-c1c(C)nn(C)c1C (stereo not shown) .
Reply: < 0.1 µM

Task item: Give the measured EC50 of Cc1nn(C)c(C)c1-c1c(Cl)ccc2c(CCCOc3cccc4c3C3CCC4C3)c(C(=O)O)n(CCN3CCN(C(=O)COc4cccc5c4CN(C4CCC(=O)NC4=O)C5=O)CC3)c12 (stereo not shown) .
Reply: < 1 µM

Task item: Give the measured EC50 of Cc1nn(C)c(C)c1-c1c(Cl)ccc2c(CCCOc3cccc4cc(F)ccc34)c(C(=O)O)n(CCN3CCC(CN4CCN(c5cc6c(cc5F)C(=O)N(C5CCC(=O)NC5=O)C6=O)CC4)CC3)c12 (stereo not shown) .
Reply: < 0.1 µM
